biological target: UniProtKB P42336; test: Cellular assay H1, p-Akt (S473) in Rat-1 cells, Surefire format; type: cell-based; conditions: non-asterisked data: version H1 (Surefire format), Rat-1 cells; read-out: Assay H PI3Kα IC50
Sequence (P42336 whole entry): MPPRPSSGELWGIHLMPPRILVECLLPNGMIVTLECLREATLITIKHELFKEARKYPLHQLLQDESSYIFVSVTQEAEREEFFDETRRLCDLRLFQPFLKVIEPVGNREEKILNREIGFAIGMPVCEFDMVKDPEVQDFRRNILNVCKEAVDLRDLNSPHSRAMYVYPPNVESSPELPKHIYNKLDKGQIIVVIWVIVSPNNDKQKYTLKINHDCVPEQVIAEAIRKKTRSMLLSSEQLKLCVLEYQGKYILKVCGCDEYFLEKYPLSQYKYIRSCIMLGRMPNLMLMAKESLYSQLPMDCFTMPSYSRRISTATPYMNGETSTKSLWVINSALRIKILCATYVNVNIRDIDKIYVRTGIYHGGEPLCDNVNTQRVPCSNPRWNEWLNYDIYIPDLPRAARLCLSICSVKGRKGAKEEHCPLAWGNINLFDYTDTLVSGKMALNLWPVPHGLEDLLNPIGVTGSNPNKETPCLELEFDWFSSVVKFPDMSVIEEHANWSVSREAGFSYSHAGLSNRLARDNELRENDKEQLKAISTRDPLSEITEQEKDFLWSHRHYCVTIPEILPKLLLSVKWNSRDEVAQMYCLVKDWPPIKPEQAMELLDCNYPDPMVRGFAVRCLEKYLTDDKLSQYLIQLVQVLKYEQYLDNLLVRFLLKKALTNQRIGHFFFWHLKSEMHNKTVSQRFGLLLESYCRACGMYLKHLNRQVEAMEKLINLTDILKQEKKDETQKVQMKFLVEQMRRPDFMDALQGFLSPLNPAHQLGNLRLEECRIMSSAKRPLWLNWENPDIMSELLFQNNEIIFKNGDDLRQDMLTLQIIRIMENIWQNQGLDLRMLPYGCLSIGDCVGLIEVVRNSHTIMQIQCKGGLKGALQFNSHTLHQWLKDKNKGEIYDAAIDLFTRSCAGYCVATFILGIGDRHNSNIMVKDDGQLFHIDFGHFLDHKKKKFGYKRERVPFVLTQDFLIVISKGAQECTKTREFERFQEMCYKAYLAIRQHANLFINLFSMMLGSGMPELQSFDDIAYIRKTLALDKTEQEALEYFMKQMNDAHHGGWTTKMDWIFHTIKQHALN
Sequence (Q63787 whole entry partner): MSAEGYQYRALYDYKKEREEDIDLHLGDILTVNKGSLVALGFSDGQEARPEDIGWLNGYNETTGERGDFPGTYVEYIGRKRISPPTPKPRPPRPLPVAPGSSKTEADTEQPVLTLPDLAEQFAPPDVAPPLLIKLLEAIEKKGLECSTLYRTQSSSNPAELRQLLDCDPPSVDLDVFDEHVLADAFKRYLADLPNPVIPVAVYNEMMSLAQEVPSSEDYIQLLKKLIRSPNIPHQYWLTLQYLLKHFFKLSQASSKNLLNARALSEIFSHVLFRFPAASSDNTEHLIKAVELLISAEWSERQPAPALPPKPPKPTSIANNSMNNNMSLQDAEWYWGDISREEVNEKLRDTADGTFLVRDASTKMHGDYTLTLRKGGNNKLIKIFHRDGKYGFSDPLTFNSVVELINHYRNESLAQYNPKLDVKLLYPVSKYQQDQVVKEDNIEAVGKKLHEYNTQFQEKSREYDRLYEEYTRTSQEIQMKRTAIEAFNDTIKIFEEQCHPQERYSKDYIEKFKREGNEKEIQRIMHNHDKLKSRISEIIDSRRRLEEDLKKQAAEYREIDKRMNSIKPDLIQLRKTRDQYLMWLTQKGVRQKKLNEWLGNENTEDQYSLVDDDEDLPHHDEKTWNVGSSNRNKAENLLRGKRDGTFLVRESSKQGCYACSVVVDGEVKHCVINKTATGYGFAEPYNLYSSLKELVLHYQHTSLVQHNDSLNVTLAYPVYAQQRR
The entries below come with measured pIC50 values attached.
Remember, pIC50 is on a log scale: it is -log10 of the molar concentration.

Cc1ccc(S(=O)(=O)NCCC(C)(C)O)cc1-c1cnc(N)c(-n2ccnc2)n1 [Example 61]    5.05

Asked: Please supply the value of reported pIC50 for the item Cc1ccc(S(=O)(=O)NCCC(C)(C)O)cc1-c1cnc(N)c(-c2cccnc2Cl)n1 [Example 119.6]
Given back: 5.39

Asked: Please supply the value of reported pIC50 for the item Cc1ccc(S(=O)(=O)NCCC(C)(C)O)cc1-c1cnc(N)c(-n2cccn2)n1 [Example 62]
Given back: 5.84

Asked: Please supply the value of reported pIC50 for the item Cc1ccc(S(=O)(=O)NCCC(C)(C)O)cc1-c1cnc(N)c(-c2ccc(F)nc2)n1 [Example 119.18]
Given back: 5.88

# credit: patent US10004732B2
